Target: T1, BCMA on BCMA-positive NCI-H929, ARP-1 and U266B1 cells (human, UniProt Q02223 1-184)
T1 sequence: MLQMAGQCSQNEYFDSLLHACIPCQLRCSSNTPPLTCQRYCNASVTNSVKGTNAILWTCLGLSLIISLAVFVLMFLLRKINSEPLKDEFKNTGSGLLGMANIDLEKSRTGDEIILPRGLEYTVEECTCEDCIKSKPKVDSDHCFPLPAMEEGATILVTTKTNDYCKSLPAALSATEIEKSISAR
Experiment: cell-based or functional assay
Mark each entry 1 (yes) if its U266B1, SC239-conjugated 2° antibody cell killing, Span sits below 60%, and 0 (no) for all others.

10F4 (antibody, V domains shown, chicken HybriFree-derived antibody; also called Antibody 37) VH: AVTLDESGGGLQTPGGALSLVCKASGFTFSGYNMGWVRQAPGKGLEYVAGITYGTGSYTAYGAAVKGRATISRDNGQSTLRLQLNNLRAEDTATYYCARGGGLNSYGCSGANIDAWGHGTEVIVSS VL: ALTQPSSVSANLGGTVKITCSGGGNYFGSYYYGWYQQKAPGSAPVTVIYNNNNRPSDIPSRFSGSTSGSTSTLTISGVRAEDEAVYFCGGFDSSTDAIFGAGTTLTVL | 0 (no)
10E10 (antibody, V domains shown, chicken HybriFree-derived antibody; also called Antibody 46) VH: AVTLDESGGGLQTPGGGLSLVCKASGFTFSSYGMGWMRQAPGKGLEFVARINSGGSSYTDYGSAVKGRATISRDDGQSTVRLQLNNLRAEDTGIYYCTRGGGGASIDGWGHGTEVIVSS VL: ALTQPSSVSANPGETVKITCSGGGNYAGSYYYGWYQQKSPGSAPLTVIYNSNNRPSDIPSRFSGSLSGSTGTLTITGVRAEDEAVYFCGGFDSSTDAIFGAGTTLTVL | 1 (yes)
10G5 (antibody, V domains shown, chicken HybriFree-derived antibody; also called Antibody 31) VH: AVTLDESGGGLQTPGGVLSLVCKASGFTFSSFNMFWVRQAPGKGLEWVAYISNDGSSTSYGPAVKGRATISRDNGQSTVRLQLNNLRAEDTATYFCAKTTCIGSGGCIDTWGHGTEVIVSS VL: ALTQPSSVSANPGETVKITCSGGNYDYGWYQQKSPGSAPVTLIYYNNKRPSDIPSRFSGSKSGSTGTLTITGVQAEDEAIYYCANVDSTDDVFGAGTTLTVL | 0 (no)
9A8 (antibody, V domains shown, chicken HybriFree-derived antibody; also called Antibody 30) VH: AVTLDESGGGLQTPGGTLSLVCKASGFTFSSFNMFWVRQAPGKGLEWVAYIRNDGNSASYGPAVKGRATISRDNGQSTVRLQLNNLRAEDTATYYCAKTTCIGSGGCIDTWGHGTEVIVSS VL: ALTQPSSVSANPGETVKITCSGGSSDYGWFQQKSPGSAPVTVIYSNNQRPSGIPSRFSGSKSGSTGTLTITGVQAEDEAIYYCANVDYTDDVFGAGTTLTVL | 1 (yes)

Shifting focus to the binder that follows.
Please let me know if 11D6 (antibody, V domains shown, chicken HybriFree-derived antibody; also called Antibody 32) VH: AVTLDESGGGLQTPGGTLSLVCKASGFTFSSFNMFWVRQAPGEGLEWVAYIRNDGRSTSYGPAVKGRATISRDNGQSTVRLQLNNLRAEDTGTYFCAKTTCVGSGGCIDTWGHGTEVIVSS VL: ALTQPSSVSANPGETVEITCSGGNSDYGWFQQKSPGSAPVTVIYRNNQRPSDIPSRFSGSGSGSTNTLTITGVQAEDEAIYYCGNVDFTDDVFGAGTTLTVL shows U266B1, SC239-conjugated 2° antibody cell killing, Span below 60%.
0 (no)
